# Assay protocol: Quantitative High-Throughput drug screen in 47 multiple myeloma cell lines against the NCATS MIPE library collection: JIM1_ECACC cell viability assay (AID 1918964; also: potency is read from the fitted curve at half-maximal effect)
# Condition set: JIM1 myeloma viability, CellTiter-Glo ATP luminescence, 48 h; series mostly up to 45.8 µM
# From the text: PI: Beverly A. Mock Ph.D. Laboratory of Cancer Biology and Genetics, Center for Cancer Research, National Cancer Institute, National Institute of Health, Bethesda, Maryland […] 5; Detector; 425V; Luminescence; Viewlux PerkinElmer. […] 1. […] Briefly, the corresponding myeloma cell lines were screened in 1,536-well plates with 500 cells, 5-uL per well for inhibition of cell viability (assessed by measuring ATP levels with CellTiterGlo). […]
Inconclusive results are not listed. Active and inactive are the calls of the source. Calls follow the shape of the dose curve; as a rule, active = well fitted cell-killing curve with a large enough effect; inconclusive = small, poorly fitted or top-dose-only effect, or effect the other way; inactive = no such curve, though single readings can be large or run the other way.
Property label: Potency

Some compounds with known Potency results, for comparison:
CN[C@@H]1[C@@H](O)[C@@H](O[C@@H]2[C@@H](O)[C@H](O[C@H]3O[C@H](CN)[C@@H](O)[C@H](O)[C@@H]3O)[C@@H](N)C[C@@H]2NC(=O)[C@@H](O)CN)OC[C@]1(C)O	inactive
OC(c1cc(C(F)(F)F)nc2c(C(F)(F)F)cccc12)C1CCCCN1 (stereo unspecified)	16.6 µM (active)
O=C(C=Cc1ccc(O)cc1)c1ccc(O)cc1O	4.69 µM (active)
CN[C@H]1[C@@H](O[C@@H]2[C@H](O[C@@H]3[C@@H](O)[C@@H](O)[C@@H](N=C(N)N)[C@@H](O)[C@@H]3N=C(N)N)O[C@H](C)[C@@]2(O)C=O)O[C@@H](CO)[C@@H](O)[C@H]1O	inactive
CC[C@H](C)n1cc(C)c2c(C(=O)NCc3c(C)cc(C)[nH]c3=O)cc(-c3ccc(N4CCNCC4)nc3)cc21	inactive
CCOC(=O)N1c2ccc(C(F)(F)F)cc2[C@@H](N(Cc2cc(C(F)(F)F)cc(C(F)(F)F)c2)C(=O)OC)C[C@H]1CC	inactive

Return Potency for the following compound: O=C1C(CCC(O)c2ccc(F)cc2)C(c2ccc(O)cc2)N1c1ccc(F)cc1 (stereo unspecified)
inactive

Return Potency for the following compound: CCC=CC[C@H]1C(=O)CC[C@@H]1CC(=O)OC
inactive

Return Potency for the following compound: Cc1cn([C@@H]2C[C@@H](O)[C@H](CO)O2)c(=O)[nH]c1=O
inactive

Return Potency for the following compound: CCNC(=O)Nc1ccc(Oc2ncnc(N)c2C=NOC)cc1Cl
2.64 µM (active)

Return Potency for the following compound: C[C@@H]1CC=CC=CC=CC=C[C@@H](O[C@@H]2O[C@H](C)[C@@H](O)[C@H](N)[C@H]2O)C[C@@H]2O[C@](O)(C[C@@H](O)C[C@@H]3O[C@@H]3C=CC(=O)O1)C[C@H](O)[C@@H]2C(=O)O
inactive

Return Potency for the following compound: CN(C)c1nc(Cc2ccc(NC(=O)c3ccc(C(F)(F)F)cc3)cc2)nc(N(C)C)c1CC(=O)O
inactive

Return Potency for the following compound: Cn1c(=O)c(-c2c(Cl)cccc2Cl)cc2cnc(Nc3cccc(C(=O)O)c3)nc21
0.0264 µM (active)

Return Potency for the following compound: N#Cc1c(N(CC(=O)O)CC(=O)O)sc(C(=O)O)c1CC(=O)O
5.9 µM (active)

Return Potency for the following compound: CCCCCCCCCCCCCC(=O)N[C@H](CO)[C@H](O)c1ccc([N+](=O)[O-])cc1
14.8 µM (active)

Return Potency for the following compound: COc1cc([C@H]2Oc3cc([C@H]4Oc5cc(O)cc(O)c5C(=O)[C@H]4O)ccc3O[C@H]2CO)ccc1O
inactive

* * *

# Assay protocol: qHTS assay for measurement of the activity of small molecule inhibitors on Zika virus induced Caspase-3 activity in human astrocytoma cells (AID 1224859)
# Condition set: SNB-19 ZIKV-induced caspase-3/7, luminescence, 6 h; series mostly up to 45.7 µM
Calls of active or inactive are those of the source. Calls come from the whole dose curve; as a rule, active = well fitted inhibition curve with a large enough effect; inconclusive = small, poorly fitted or top-dose-only effect; inactive = no such curve, though single readings can be large or run the other way.
Bench note: report the call from active, inactive

What did this assay record as the result for NC(=O)c1ncn([C@@H]2O[C@H](CO)[C@@H](O)[C@@H]2O)n1 ?
inactive

What did this assay record as the result for O=C(O)C1=CC(O)C(O)[C@H](O)C1 (stereo partly drawn) ?
inactive

What did this assay record as the result for COc1ccc(-c2nc3ccc(C4=NNC(=O)CC4C)cc3[nH]2)cc1 (stereo not drawn) ?
inactive

What did this assay record as the result for N#Cc1ccc(Oc2ccc3c(c2)COB3O)cc1 ?
inactive

What did this assay record as the result for CC(C)Oc1cc(Nc2nc(N[C@@H](C)c3ccc(F)cn3)ncc2Cl)[nH]n1 ?
inactive

What did this assay record as the result for COc1cc2c(cc1OC)CC(=O)N(CCCN(C)C[C@H]1Cc3cc(OC)c(OC)cc31)CC2 ?
inactive

What did this assay record as the result for CCCCC(F)(F)[C@@]1(O)CC[C@H]2[C@H](CC(=O)[C@@H]2CCCCCCC(=O)O)O1 ?
inactive

What did this assay record as the result for Nc1ccn([C@@H]2O[C@H](CO)[C@@H](O)[C@H]2O)c(=O)n1 ?
inactive

What did this assay record as the result for O=C(O)Cc1cccc(OCCCN(Cc2cccc(C(F)(F)F)c2Cl)CC(c2ccccc2)c2ccccc2)c1 ?
inactive

What did this assay record as the result for CC=C(C(=CC)c1ccc(O)cc1)c1ccc(O)cc1 ?
inactive

What did this assay record as the result for Clc1ccc(C2(c3ccc(-c4cn[nH]c4)cc3)CCNCC2)cc1 ?
inactive

What did this assay record as the result for Nc1nc(Cl)nc2c1ncn2[C@@H]1O[C@H](CO)[C@@H](O)[C@H]1F ?
inactive

What did this assay record as the result for CO[C@H]1C=CO[C@@]2(C)Oc3c(C)c(O)c4c(O)c(c(C=NN5CCN(C)CC5)c(O)c4c3C2=O)NC(=O)C(C)=CC=C[C@H](C)[C@H](O)[C@@H](C)[C@@H](O)[C@@H](C)[C@H](OC(C)=O)[C@H]1C ?
inactive

What did this assay record as the result for Cc1cn([C@@H]2C[C@@H](O)[C@H](CO)O2)c(=O)[nH]c1=O ?
inactive

What did this assay record as the result for CC(C)(C)c1[nH]cnc1C=c1[nH]c(=O)c(=Cc2ccccc2)[nH]c1=O ?
inactive

What did this assay record as the result for O=C1NC(=O)C(=Cc2ccc(-c3ccc(F)cc3O)o2)S1 ?
active

What did this assay record as the result for OC[C@H]1O[C@@H](OCCc2ccc(O)cc2)[C@H](O)[C@@H](O)[C@H]1O ?
inactive

What did this assay record as the result for OCCn1cc(-c2ccc3c(c2)CCC3=NO)c(-c2ccncc2)n1 ?
inactive

What did this assay record as the result for CN(C)CCCNC(=O)c1ccc(-c2cc(O)c3ncccc3c2)cc1 ?
inactive

What did this assay record as the result for COc1cc([C@H]2Oc3cc([C@H]4Oc5cc(O)cc(O)c5C(=O)[C@H]4O)ccc3O[C@H]2CO)ccc1O ?
inactive

What did this assay record as the result for CCC[C@H](N[C@@H](C)C(=O)N1[C@@H]2CCCC[C@H]2C[C@H]1C(=O)O)C(=O)OCC ?
inactive

What did this assay record as the result for CCN1CCN(c2ccc(Nc3cc(N(C)C(=O)Nc4c(Cl)c(OC)cc(OC)c4Cl)ncn3)cc2)CC1 ?
inactive

What did this assay record as the result for N=C1SC(=Cc2ccc(-c3ccc4c(c3)C(=O)NC4=O)o2)C(=O)N1c1ccc(Br)cc1 ?
inactive

What did this assay record as the result for CC(C)(CO)[C@@H](O)C(=O)NCCC(=O)O ?
inactive

What did this assay record as the result for CCOC(=O)[C@H]1O[C@H]1C(=O)N[C@@H](CC(C)C)C(=O)NCCC(C)C ?
inactive

What did this assay record as the result for COc1c(C)c2c(c(O)c1CC=C(C)CCC(=O)OCCN1CCOCC1)C(=O)OC2 ?
inactive

What did this assay record as the result for O=C1C(c2c(O)[nH]c3ccccc23)=Nc2ccccc21 ?
inactive

What did this assay record as the result for COc1cc2c(cc1OC)[C@@H]1Cc3ccc(OC)c(OC)c3CN1CC2 ?
inactive

What did this assay record as the result for CC1(C)CC(=O)c2c(C(F)(F)F)nn(-c3ccc(C(N)=O)c(NC4CCC(O)CC4)c3)c2C1 (stereo not drawn) ?
inactive

What did this assay record as the result for O=c1[nH]c(=O)n([C@H]2C[C@@H](O)[C@@H](CO)O2)cc1C(F)(F)F ?
inactive

What did this assay record as the result for CCCCC[C@H](O)C=C[C@H]1[C@H](O)CC(=O)[C@H]1CCCCCCC(=O)O ?
inactive

What did this assay record as the result for CC[C@H](C)C(=O)O[C@H]1C[C@H](O)C=C2C=C[C@H](C)[C@H](CC[C@@H](O)C[C@@H](O)CC(=O)O)[C@H]21 ?
inactive

What did this assay record as the result for c1cc(OCCN2CCCCC2)cc(-c2n[nH]c3ccc(-c4ncn[nH]4)cc23)c1 ?
inactive

What did this assay record as the result for CCC(=C(CC)c1ccc(O)cc1)c1ccc(O)cc1 ?
inactive

What did this assay record as the result for C[C@@H]1C[C@H]2[C@@H]3CCC4=CC(=O)C=C[C@]4(C)[C@@]3(F)[C@@H](O)C[C@]2(C)[C@@]1(O)C(=O)CO ?
inactive

What did this assay record as the result for C[C@]12CC[C@@H]3c4ccc(O)cc4CC[C@H]3[C@H]1[C@@H](O)[C@@H](O)[C@H]2O ?
inactive

What did this assay record as the result for COc1cc2ncnc(Nc3cc(Br)c(O)c(Br)c3)c2cc1OC ?
inactive

What did this assay record as the result for CCNC(=O)c1noc(-c2cc(C(C)C)c(O)cc2O)c1-c1ccc(CN2CCOCC2)cc1 ?
inactive
